Tested on: Hepatitis C virus
Test: Inhibition of HCV genotype 1b NS3/4A protease
Set-up: species or system Hepatitis C virus subtype 1b
measuredQuantity: pKi
Give bare numbers, as −log10 of the molar value.

compound | measuredQuantity | measurement
C=C[C@H]1C[C@]1(NC(=O)[C@@H]1C[C@@H]2CN1C(=O)[C@H](C(C)(C)C)NC(=O)OCC(C)(C)CCCCc1cccc3c1CN(C3)C(=O)O2)C(=O)O | pKi | 5.55
C=CC1CC1(NC(=O)[C@@H]1C[C@@H]2CN1C(=O)[C@H](C(C)(C)C)NC(=O)OCC(C)(C)CCCCc1cccc3c1CN(C3)C(=O)O2)P(=O)(OCC)OCC (stereo in doubt) | pKi | 5.54
C=CC1CC1(NC(=O)[C@@H]1C[C@@H]2CN1C(=O)[C@H](C(C)(C)C)NC(=O)OCC(C)(C)CCCCc1cccc3c1CN(C3)C(=O)O2)P(C)(=O)O (mixture of isomers) | pKi | 8.70
C=CC1CC1(NC(=O)[C@@H]1C[C@@H]2CN1C(=O)[C@H](C(C)(C)C)NC(=O)OCC(C)(C)CCCCc1cccc3c1CN(C3)C(=O)O2)P(=O)(O)OCC (mixture of isomers) | pKi | 7.15

[in] Form: Entry = C=CC1CC1(NC(=O)[C@@H]1C[C@@H]2CN1C(=O)[C@H](C(C)(C)C)NC(=O)OCC(C)(C)CCCCc1cccc3c1CN(C3)C(=O)O2)P(=O)(O)O (mixture of isomers) | System = Hepatitis C virus | pKi = ____
[out] 7.80
